tested on: Rhinovirus type 13; assay: Plaque inhibition in HeLa cells, rhinovirus type 13; settings: Enterovirus, read-out: Minimum Inhibitory Concentration (MIC)
metric: MIC (µg/mL)

1) CC(=O)Nc1nn(C)c2c1sc1ccccc12 [Example 65] = 5
2) CC(C)CC(=O)Nc1nn(C)c2c1sc1ccccc12 [Example 64] = 2
3) CCC(CC)C(=O)Nc1nn(C)c2c1sc1ccccc12 [Example 63] = 2
4) Cn1nc(NC(=O)CC2CCCC2)c2sc3ccccc3c21 [Example 62] = 2
5) Cn1nc(NC(=O)c2cccnc2)c2sc3ccccc3c21 [Example 66] = 2

----------
tested on: Rhinovirus 6579; assay: Plaque inhibition in HeLa cells, rhinovirus 6579; conditions: Enterovirus, read-out: Minimum Inhibitory Concentration (MIC)
metric: MIC (µg/mL)

1) Cn1nc(NC(=O)c2cccnc2)c2sc3ccccc3c21 = 2
2) CCC(CC)C(=O)Nc1nn(C)c2c1sc1ccccc12 = 2
3) CC(C)CC(=O)Nc1nn(C)c2c1sc1ccccc12 = 2
4) Cn1nc(NC(=O)CC2CCCC2)c2sc3ccccc3c21 = 2
5) CC(=O)Nc1nn(C)c2c1sc1ccccc12 = 5

----------
test system: Rhinovirus type 15; test: Plaque inhibition in HeLa cells, rhinovirus type 15; details: Enterovirus, read-out: Minimum Inhibitory Concentration (MIC)
metric: MIC (µg/mL)

1) CCC(CC)C(=O)Nc1nn(C)c2c1sc1ccccc12 = 0.5
2) CC(=O)Nc1nn(C)c2c1sc1ccccc12 = 5
3) CC(C)CC(=O)Nc1nn(C)c2c1sc1ccccc12 = 1
4) Cn1nc(NC(=O)CC2CCCC2)c2sc3ccccc3c21 = 5
5) Cn1nc(NC(=O)c2cccnc2)c2sc3ccccc3c21 = 4

----------
system: Rhinovirus type 5; assay: Plaque inhibition in HeLa cells, rhinovirus type 5; settings: Enterovirus, read-out: Minimum Inhibitory Concentration (MIC)
Catalogue of MIC readings, one per entry.
metric: MIC (µg/mL)

1. CC(=O)Nc1nn(C)c2c1sc1ccccc12 [Example 65] = 4
2. Cn1nc(NC(=O)c2cccnc2)c2sc3ccccc3c21 [Example 66] = 2
3. CC(C)CC(=O)Nc1nn(C)c2c1sc1ccccc12 [Example 64] = 2
4. Cn1nc(NC(=O)CC2CCCC2)c2sc3ccccc3c21 [Example 62] = 2
5. CCC(CC)C(=O)Nc1nn(C)c2c1sc1ccccc12 [Example 63] = 2

----------
test system: Rhinovirus type 2; test: Plaque inhibition in HeLa cells, rhinovirus type 2; conditions: Enterovirus, read-out: Minimum Inhibitory Concentration (MIC)
metric: MIC (µg/mL)

1) Cn1nc(NC(=O)CC2CCCC2)c2sc3ccccc3c21 = 2
2) CC(C)CC(=O)Nc1nn(C)c2c1sc1ccccc12 = 2
3) CCC(CC)C(=O)Nc1nn(C)c2c1sc1ccccc12 = 2
4) Cn1nc(NC(=O)c2cccnc2)c2sc3ccccc3c21 = 2
5) CC(=O)Nc1nn(C)c2c1sc1ccccc12 = 4
